Reference source for all entries: the supplement of paper PMC11451515

- Tested on: P12-Ichikawa
- ASSAY_INFO: cell viability relative to DMSO control; higher = less cytotoxic
- PROTOCOL_CONDITIONS: RPMI 5 mM glucose + 10% dialyzed FBS; 48 h; 0.0632 µM
cell viability values by entry
RECORDED_ENDPOINT: cell viability (%)

1. COc1cc(CNC(=O)CCCC/C=C/C(C)C)ccc1O = 116
2. CC(C)(O)/C=C\C(=O)[C@](C)(O)[C@H]1[C@H](O)C[C@]2(C)[C@@H]3CC=C4[C@@H](C=C(O)C(=O)C4(C)C)[C@]3(C)C(=O)C[C@@]12C = 102
3. C[C@@H](O)[C@@H]1NC(=O)[C@H](CCCCN)NC(=O)[C@@H](Cc2c[nH]c3ccccc23)NC(=O)[C@H](Cc2ccccc2)NC(=O)[C@@H](NC(=O)[C@H](N)Cc2ccccc2)CSSC[C@@H](C(=O)N[C@H](CO)[C@@H](C)O)NC1=O = 84.9
4. N=C1N[C@H]2[C@H](CS[C@H]2CCCCC(=O)O)N1 = 117
